Taken from patent US8138187B2.

Biological target: UniProtKB P35372
Sequence (P35372 whole entry): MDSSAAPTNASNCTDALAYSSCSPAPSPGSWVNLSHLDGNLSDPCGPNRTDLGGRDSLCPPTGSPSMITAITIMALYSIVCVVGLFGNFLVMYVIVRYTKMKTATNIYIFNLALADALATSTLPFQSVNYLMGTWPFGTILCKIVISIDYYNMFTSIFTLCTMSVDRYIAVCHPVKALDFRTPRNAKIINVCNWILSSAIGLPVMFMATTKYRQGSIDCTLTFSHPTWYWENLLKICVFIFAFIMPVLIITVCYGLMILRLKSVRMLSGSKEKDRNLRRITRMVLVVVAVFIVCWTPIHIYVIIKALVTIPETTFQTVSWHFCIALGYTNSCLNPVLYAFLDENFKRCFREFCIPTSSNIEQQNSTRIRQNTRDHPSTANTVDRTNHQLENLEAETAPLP
Test: μ binding, displacement of [3H]-naloxone
Conditions: CHO-K1 membranes expressing human μ opiate receptor; Cheng-Prusoff
reported_property: Ki (µM)

- CN(C)C1(Cc2ccccc2)CC=C(c2cc3ccccc3n2C)CC1 (stereo not shown): 0.103
